# system: full length hCDK2/E (Homo sapiens, UniProt P24941)
# assayDetails: γ-33P ATP filter binding assay, hCDK2/E
# experimentalConditions: read-out: CDK2/E inhibition @50μM, 50 μM compound, ATP (Km) 65 μM, Table 5
measurementName: inhibition at 50 µM (%)
Provide the reading as a plain figure in %.

Some molecules with known inhibition at 50 µM results, for comparison:
O=C(Nc1cccnc1)c1cc2c(=O)[nH]c3ccccc3c2s1 [Compound 25x] ... 36.7
NCCCNC(=O)c1cc2c(=O)[nH]c3ccccc3c2s1 [Compound 25k] ... 3.7
NCCNC(=O)c1cc2c(=O)[nH]c3ccccc3c2s1 [Compound 25i] ... 4.9

Shift focus to the following entry.
Task item: For the molecule shown here, COC(=O)c1ccccc1NC(=O)c1cc2c(=O)[nH]c3ccccc3c2s1 [Compound 25r] , give the reported inhibition at 50 µM.
Reply: 74.8

These measurements were taken from paper PMC4254530.
